The values you see were collected from the supplement of paper PMC7877785.

Assay: self-splicing fitness, log relative to wild type (ln ratio); higher = more splicing; Tetrahymena group I intron in knt gene, E. coli kanamycin selection, DiMSum; sequences stand for … in CUCUCU…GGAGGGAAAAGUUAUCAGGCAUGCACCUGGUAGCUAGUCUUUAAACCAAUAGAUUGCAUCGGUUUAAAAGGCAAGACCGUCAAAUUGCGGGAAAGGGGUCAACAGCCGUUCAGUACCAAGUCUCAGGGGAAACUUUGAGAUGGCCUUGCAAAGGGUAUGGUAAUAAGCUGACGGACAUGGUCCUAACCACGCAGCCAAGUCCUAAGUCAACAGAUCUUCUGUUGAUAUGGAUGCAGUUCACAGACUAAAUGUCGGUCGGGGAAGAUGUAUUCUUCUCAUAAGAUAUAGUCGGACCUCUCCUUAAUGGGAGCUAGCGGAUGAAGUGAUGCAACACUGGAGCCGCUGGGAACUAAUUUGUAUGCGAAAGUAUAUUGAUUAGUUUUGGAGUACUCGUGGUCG;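 note: selection with 25 µg/mL kanamycin versus none on LB agar overnight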
Conditions: 37 °C
We begin with a simple list: items and their reported self-splicing fitness (ln).
Output spec: single numeric token, no unit.

# SEQ STRING, TEST READOUT, MEASURED VALUE
rows = [
    ("UUCCAGCAAUAUUACGUACC", "self-splicing fitness (ln)", -1.71),
    ("GCUUAGCAAUAUUACGGAUC", "self-splicing fitness (ln)", 0.437),
    ("AUGCAGCAAUAUUACGCAAG", "self-splicing fitness (ln)", -1.72),
    ("GUUAAGCAAUAUUACGUUUC", "self-splicing fitness (ln)", -1.29),
    ("AGAGAGCAAUAUUACGGAAU", "self-splicing fitness (ln)", -1.79),
    ("UGCCAGCAAUAUUACGCCCA", "self-splicing fitness (ln)", -0.149),
    ("AAGGAGCAAUAUUACGUAAC", "self-splicing fitness (ln)", -2.96),
    ("CGCCAGCAAUAUUACGAAUC", "self-splicing fitness (ln)", -2.92),
    ("GCGGAGCAAUAUUACGAUGG", "self-splicing fitness (ln)", -1.02),
    ("GCUCAGCAAUAUUACGAGUG", "self-splicing fitness (ln)", -0.148),
]

Query: For `GCGCAGCAAUAUUACGGCAA` , what is its reported self-splicing fitness (ln)?
Result: -0.814

Query: For `AACAAGCAAUAUUACGUAUA` , what is its reported self-splicing fitness (ln)?
Result: -1.59

Query: For `CUGGAGCAAUAUUACGAGGG` , what is its reported self-splicing fitness (ln)?
Result: -2.08

Query: For `AUGUAGCAAUAUUACGGUGA` , what is its reported self-splicing fitness (ln)?
Result: -1.52

###

Assay: self-splicing fitness, log relative to wild type (ln ratio); higher = more splicing; Tetrahymena group I intron in knt gene, E. coli kanamycin selection, DiMSum; sequences stand for … in CUCUCU…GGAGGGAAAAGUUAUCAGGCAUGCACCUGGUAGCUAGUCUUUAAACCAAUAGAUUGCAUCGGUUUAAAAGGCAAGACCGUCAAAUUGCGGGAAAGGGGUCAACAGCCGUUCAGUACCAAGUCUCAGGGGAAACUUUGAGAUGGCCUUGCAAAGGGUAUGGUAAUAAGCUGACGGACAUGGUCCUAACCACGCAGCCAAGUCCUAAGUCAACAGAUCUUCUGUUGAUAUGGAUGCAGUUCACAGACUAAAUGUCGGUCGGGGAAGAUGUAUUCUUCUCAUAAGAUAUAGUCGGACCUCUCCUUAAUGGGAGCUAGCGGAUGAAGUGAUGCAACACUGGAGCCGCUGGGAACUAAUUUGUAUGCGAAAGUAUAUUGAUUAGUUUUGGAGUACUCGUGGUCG
Settings: 37 °C
We begin with a simple list: items and their reported self-splicing fitness (ln).
Output spec: single numeric token, no unit.

# SEQ STRING, TEST READOUT, MEASURED VALUE
rows = [
    ("AUCCAGCAAUAUUACGCUUG", "self-splicing fitness (ln)", -2.7),
]

Query: For `CGCCAGCAAUAUUACGAGUU` , what is its reported self-splicing fitness (ln)?
Result: -3.16

Query: For `AAUAAGCAAUAUUACGUCGA` , what is its reported self-splicing fitness (ln)?
Result: -0.488

Query: For `UCUCAGCAAUAUUACGGUGA` , what is its reported self-splicing fitness (ln)?
Result: -1.14

Query: For `AACGAGCAAUAUUACGCCGU` , what is its reported self-splicing fitness (ln)?
Result: -1.88

Query: For `CUUCAGCAAUAUUACGUCGG` , what is its reported self-splicing fitness (ln)?
Result: -1.79

###

Assay: self-splicing fitness, log relative to wild type (ln ratio); higher = more splicing; Tetrahymena group I intron in knt gene, E. coli kanamycin selection, DiMSum; sequences stand for … in CUCUCU…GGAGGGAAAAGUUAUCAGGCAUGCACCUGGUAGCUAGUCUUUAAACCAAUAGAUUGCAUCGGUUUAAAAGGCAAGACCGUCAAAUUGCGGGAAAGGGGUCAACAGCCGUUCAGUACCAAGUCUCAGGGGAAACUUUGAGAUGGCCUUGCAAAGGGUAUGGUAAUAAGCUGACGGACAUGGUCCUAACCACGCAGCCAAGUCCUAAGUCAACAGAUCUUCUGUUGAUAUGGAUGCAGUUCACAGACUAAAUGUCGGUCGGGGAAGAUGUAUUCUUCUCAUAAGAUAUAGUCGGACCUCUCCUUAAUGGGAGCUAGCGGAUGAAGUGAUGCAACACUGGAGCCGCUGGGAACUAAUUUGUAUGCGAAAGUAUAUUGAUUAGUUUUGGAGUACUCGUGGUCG
Details: 30 °C
Outcome label depends on self-splicing fitness (ln) relative to -2: at/above gives 1 (yes), below gives 0 (no).

# SEQ STRING, ANSWER LABEL
records = [
    ("GUCCAGCAAUAUUACGCGGC", "0 (no)"),
    ("CUUGAGCAAUAUUACGGUCG", "1 (yes)"),
    ("UAAGAGCAAUAUUACGGCAU", "0 (no)"),
    ("GUGCAGCAAUAUUACGAUAU", "1 (yes)"),
    ("AUCUAGCAAUAUUACGUUGG", "0 (no)"),
    ("UAAAAGCAAUAUUACGUCCA", "1 (yes)"),
]

Query: Test whether the sequence `GAGUAGCAAUAUUACGCCAU` records self-splicing fitness (ln) of -2 or higher.
Result: 0 (no)

Query: Test whether the sequence `AGGCAGCAAUAUUACGACGG` records self-splicing fitness (ln) of -2 or higher.
Result: 0 (no)

Query: Test whether the sequence `ACUUAGCAAUAUUACGUUGC` records self-splicing fitness (ln) of -2 or higher.
Result: 0 (no)

Query: Test whether the sequence `AAAUAGCAAUAUUACGCUUA` records self-splicing fitness (ln) of -2 or higher.
Result: 1 (yes)

###

Assay: self-splicing fitness, log relative to wild type (ln ratio); higher = more splicing; Tetrahymena group I intron in knt gene, E. coli kanamycin selection, DiMSum; sequences stand for … in CUCUCU…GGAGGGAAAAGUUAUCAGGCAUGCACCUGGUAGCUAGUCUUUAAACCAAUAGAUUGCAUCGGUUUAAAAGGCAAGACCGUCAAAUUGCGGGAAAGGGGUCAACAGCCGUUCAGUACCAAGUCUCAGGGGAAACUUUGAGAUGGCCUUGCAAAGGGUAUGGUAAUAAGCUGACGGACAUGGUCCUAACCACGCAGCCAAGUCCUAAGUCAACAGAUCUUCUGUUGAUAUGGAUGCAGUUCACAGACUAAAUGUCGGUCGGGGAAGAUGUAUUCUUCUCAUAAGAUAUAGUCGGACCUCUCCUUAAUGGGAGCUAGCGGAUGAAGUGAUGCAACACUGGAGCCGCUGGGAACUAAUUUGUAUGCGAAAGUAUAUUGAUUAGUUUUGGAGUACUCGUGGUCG
Details: 37 °C
TEST READOUT: self-splicing fitness (ln)
Output spec: single numeric token, no unit.

Query: For `CGGGAGCAAUAUUACGCAGU` , what is its reported self-splicing fitness (ln)?
Result: -1.82

Query: For `UUAAAGCAAUAUUACGGGCC` , what is its reported self-splicing fitness (ln)?
Result: -1.25

###

We begin with a simple list: items and their reported self-splicing fitness (ln).
Assay: self-splicing fitness, log relative to wild type (ln ratio); higher = more splicing; Tetrahymena group I intron in knt gene, E. coli kanamycin selection, DiMSum; sequences stand for … in CUCUCU…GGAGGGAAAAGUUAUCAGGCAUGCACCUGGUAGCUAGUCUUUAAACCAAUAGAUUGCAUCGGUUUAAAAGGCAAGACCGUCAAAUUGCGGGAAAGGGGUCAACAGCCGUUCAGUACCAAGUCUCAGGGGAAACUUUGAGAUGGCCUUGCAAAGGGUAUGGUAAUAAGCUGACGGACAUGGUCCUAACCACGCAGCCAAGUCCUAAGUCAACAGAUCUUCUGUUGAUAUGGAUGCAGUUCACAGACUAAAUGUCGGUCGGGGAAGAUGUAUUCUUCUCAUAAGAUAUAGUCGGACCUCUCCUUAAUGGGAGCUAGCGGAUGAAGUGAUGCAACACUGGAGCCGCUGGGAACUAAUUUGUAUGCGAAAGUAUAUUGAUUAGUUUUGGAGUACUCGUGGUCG
Conditions: 30 °C
Output spec: single numeric token, no unit.

# SEQ STRING, self-splicing fitness (ln)
records = [
    ("ACGGAGCAAUAUUACGUGUU", -3.23),
]

Query: For `GAAGAGCAAUAUUACGCAUG` , what is its reported self-splicing fitness (ln)?
Result: -3.45

Query: For `CUCGAGCAAUAUUACGGAAC` , what is its reported self-splicing fitness (ln)?
Result: -3.24

Query: For `UUUAAGCAAUAUUACGGUCU` , what is its reported self-splicing fitness (ln)?
Result: -2.5

Query: For `UAGAAGCAAUAUUACGUAUA` , what is its reported self-splicing fitness (ln)?
Result: -1.58

Query: For `CAGUAGCAAUAUUACGCGAA` , what is its reported self-splicing fitness (ln)?
Result: -4.22

Query: For `AAGAAGCAAUAUUACGACGG` , what is its reported self-splicing fitness (ln)?
Result: -1.52

Query: For `GGAAAGCAAUAUUACGAGCU` , what is its reported self-splicing fitness (ln)?
Result: -0.199
